target: IL-23R (Homo sapiens); test: cell-based; settings: PBMC pSTAT3 IC50 (nM), PBMCs from healthy donors, IL-23 5 ng/mL, 30 minutes, phosphorylated STAT3;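 further: cryopreserved PBMCs stimulated at 37 °C in 5% CO2, then lysed, with phosphorylated STAT3 quantified in lysates using a phospho-STAT panel kit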
Sequence (Q5VWK5 24-629): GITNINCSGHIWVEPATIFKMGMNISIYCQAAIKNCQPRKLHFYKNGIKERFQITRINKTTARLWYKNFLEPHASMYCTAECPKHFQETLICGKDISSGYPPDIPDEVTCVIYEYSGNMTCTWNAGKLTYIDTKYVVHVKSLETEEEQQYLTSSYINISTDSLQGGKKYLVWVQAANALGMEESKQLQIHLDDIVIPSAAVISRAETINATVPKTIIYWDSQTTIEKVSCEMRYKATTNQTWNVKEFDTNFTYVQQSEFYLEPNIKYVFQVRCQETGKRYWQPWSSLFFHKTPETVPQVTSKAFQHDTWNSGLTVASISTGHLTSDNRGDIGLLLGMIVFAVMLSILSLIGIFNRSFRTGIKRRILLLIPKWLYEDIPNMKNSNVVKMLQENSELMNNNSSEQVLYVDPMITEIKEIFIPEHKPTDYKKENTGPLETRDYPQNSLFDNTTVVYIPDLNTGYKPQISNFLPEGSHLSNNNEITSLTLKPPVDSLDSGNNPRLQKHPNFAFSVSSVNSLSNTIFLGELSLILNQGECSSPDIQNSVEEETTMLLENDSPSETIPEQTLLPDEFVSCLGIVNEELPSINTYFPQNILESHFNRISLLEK
Positions of bridges follow the written chain, without caps; N, C: chain ends. Non-standard residues stand in square brackets, D forms with d. Residues, ends and D or L forms follow the SMILES beside them. *: point of attachment. 2Nal = N[C@@H](Cc1ccc2ccccc2c1)C(=O)O; AEF = NCCOc1ccc(C[C@H](N)C(=O)O)cc1; αMeF = C[C@](N)(Cc1ccccc1)C(=O)O; Pen = CC(C)(S)[C@H](N)C(=O)O; Thp = NC1(C(=O)O)CCOCC1; Propionyl = CCC(=O)*
experimental endpoint: IC50 (nM)
Give the number; nM is assumed, so skip it.

Below: 2 molecules and their reported IC50.
Data request: Reported IC50 for CC(=O)N[C@H](CCCNC(=N)N)C(=O)N[C@H]1CCSC[C@@H](C(=O)N[C@@H](Cc2ccc(OCCN)cc2)C(=O)N[C@@H](Cc2ccc3ccccc3c2)C(=O)NC2(C(=O)N[C@@](C)(CCC(=O)O)C(=O)N[C@@H](CC(N)=O)C(=O)N[C@@H](Cc3c[nH]c4ccc(F)cc34)C(N)=O)CCOCC2)NC(=O)[C@H](CCC(N)=O)NC(=O)[C@H](Cc2c[nH]c3ccccc23)NC(=O)[C@H]([C@@H](C)O)NC(=O)[C@H](CCC(N)=O)NC1=O [Compound 81] : what is it?
Data returned: 30

Data request: Thanks! And CC(=O)NCCCC[C@@H]1NC(=O)[C@H](Cc2c[nH]c3ccccc23)NC(=O)[C@H]([C@@H](C)O)NC(=O)[C@H](CC(N)=O)NC(=O)[C@@H](NC(C)=O)C(C)(C)SSC(C)(C)[C@@H](C(=O)N[C@@H](Cc2ccc(OCCN)cc2)C(=O)N[C@@H](Cc2ccc3ccccc3c2)C(=O)N[C@@](C)(CCCCN)C(=O)N[C@@H](CCCCNC(C)=O)C(=O)N[C@@H](CC(N)=O)C(=O)NC2(C(N)=O)CCOCC2)NC1=O [Compound 95] ?
Data returned: 22

Please turn your attention to the following entry.
Data request: Item CCC(=O)N[C@H](CCCNC(=N)N)C(=O)N[C@@H]1C(=O)N[C@@H](CCC(N)=O)C(=O)N[C@@H]([C@@H](C)O)C(=O)N[C@@H](Cc2c[nH]c3ccccc23)C(=O)N[C@@H](CCC(N)=O)C(=O)N[C@H](C(=O)N[C@@H](Cc2ccc(OCCN)cc2)C(=O)N[C@@H](Cc2ccc3ccccc3c2)C(=O)NC2(C(=O)N[C@@H](CCC(=O)O)C(=O)N[C@@H](CC(N)=O)C(=O)N[C@@](C)(Cc3ccccc3)C(N)=O)CCOCC2)C(C)(C)SSC1(C)C [Compound 3] (Propionyl-[dR][Pen]QTWQ[Pen][AEF][2Nal][Thp]EN[αMeF]-NH2; disulfide 2-7) has what recorded IC50?
Data returned: 40
